# MEASUREMENT_TARGET: Vascular endothelial growth factor receptor 2 (Homo sapiens, UniProt P35968)
# Sequence (P35968 whole entry): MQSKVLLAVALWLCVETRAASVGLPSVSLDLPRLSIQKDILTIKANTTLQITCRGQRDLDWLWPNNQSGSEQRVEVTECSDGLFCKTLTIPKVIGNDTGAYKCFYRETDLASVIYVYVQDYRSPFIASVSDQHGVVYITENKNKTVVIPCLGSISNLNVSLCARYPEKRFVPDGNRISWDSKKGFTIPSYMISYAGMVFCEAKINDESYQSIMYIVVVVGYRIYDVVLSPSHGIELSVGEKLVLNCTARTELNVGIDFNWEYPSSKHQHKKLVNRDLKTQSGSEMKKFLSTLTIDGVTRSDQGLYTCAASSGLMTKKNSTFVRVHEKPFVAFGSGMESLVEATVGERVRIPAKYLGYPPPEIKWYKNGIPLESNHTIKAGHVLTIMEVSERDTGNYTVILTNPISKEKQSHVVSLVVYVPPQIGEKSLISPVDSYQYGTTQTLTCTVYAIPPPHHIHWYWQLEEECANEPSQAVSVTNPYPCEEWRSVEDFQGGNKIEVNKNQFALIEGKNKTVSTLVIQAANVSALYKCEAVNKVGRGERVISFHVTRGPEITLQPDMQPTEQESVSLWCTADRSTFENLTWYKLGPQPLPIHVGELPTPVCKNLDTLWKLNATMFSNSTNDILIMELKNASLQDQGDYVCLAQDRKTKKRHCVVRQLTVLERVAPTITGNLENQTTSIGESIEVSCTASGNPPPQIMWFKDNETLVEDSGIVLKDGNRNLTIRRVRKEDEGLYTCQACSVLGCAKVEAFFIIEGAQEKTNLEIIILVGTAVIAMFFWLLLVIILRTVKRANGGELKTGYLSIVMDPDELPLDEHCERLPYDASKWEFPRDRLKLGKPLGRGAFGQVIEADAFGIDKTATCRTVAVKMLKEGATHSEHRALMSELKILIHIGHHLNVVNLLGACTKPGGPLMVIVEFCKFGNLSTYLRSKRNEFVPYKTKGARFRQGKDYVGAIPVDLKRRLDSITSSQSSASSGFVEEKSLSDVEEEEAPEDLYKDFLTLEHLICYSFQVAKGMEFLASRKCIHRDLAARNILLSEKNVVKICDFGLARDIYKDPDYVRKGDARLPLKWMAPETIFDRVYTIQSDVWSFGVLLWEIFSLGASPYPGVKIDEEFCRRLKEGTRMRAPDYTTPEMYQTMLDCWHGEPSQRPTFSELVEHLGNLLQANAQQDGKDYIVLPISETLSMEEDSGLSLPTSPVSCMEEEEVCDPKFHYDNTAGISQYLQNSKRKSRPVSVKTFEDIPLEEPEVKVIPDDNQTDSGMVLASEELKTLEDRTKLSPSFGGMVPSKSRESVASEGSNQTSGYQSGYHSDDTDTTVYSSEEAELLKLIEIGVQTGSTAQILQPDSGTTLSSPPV
# EXPERIMENT_DESCRIPTION: Inhibition of VEGFR2 assessed as [33Pi] incorporation by microplate scintillation counting in presence of 1 uM ATP
RESULT_TYPE: pIC50
// field semantics: pIC50 = negative decimal log of concentration (mol/L)

>>> print(df.to_string())
                           structure_smiles  result_type  value_observed
0  Cc1ccc(Nc2ncc3c(n2)-c2ccccc2NC(=O)C3)cc1        pIC50            6.72
1             O=C1Cc2cnc3ccnn3c2-c2ncccc2N1        pIC50            4.06

Param item = COc1ccc2c(c1)NC(=O)Cc1cnc(Nc3ccc(O)cc3)nc1-2 ; retrieve measured pIC50. 7.55

====

Each record here notes measured IC50.
# MEASUREMENT_TARGET: Serine/threonine-protein kinase PLK1 (Homo sapiens, UniProt P53350)
# Sequence (P53350 whole entry): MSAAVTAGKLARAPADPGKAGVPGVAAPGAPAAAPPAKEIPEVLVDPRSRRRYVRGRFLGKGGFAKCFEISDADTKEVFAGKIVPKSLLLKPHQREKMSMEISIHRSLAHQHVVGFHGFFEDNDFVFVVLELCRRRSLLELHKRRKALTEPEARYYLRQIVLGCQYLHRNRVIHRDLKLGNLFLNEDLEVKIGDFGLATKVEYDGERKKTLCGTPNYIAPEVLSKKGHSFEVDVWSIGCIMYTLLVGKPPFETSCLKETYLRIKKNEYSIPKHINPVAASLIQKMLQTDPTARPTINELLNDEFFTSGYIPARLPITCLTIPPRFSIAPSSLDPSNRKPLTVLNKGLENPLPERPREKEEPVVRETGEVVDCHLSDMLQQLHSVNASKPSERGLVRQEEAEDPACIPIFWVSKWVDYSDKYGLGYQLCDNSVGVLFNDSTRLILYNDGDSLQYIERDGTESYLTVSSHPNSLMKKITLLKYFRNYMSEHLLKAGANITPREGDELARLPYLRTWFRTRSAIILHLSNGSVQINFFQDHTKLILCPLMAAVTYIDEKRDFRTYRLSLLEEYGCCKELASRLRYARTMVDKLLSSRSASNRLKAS
Report as a plain number; the unit µM is understood.

# count of solved cases: 4
In [3]: df
Out[3]:
                           structure_smiles  result_type  output_unit  value_observed
0    O=C1Cc2cnc(Nc3cccc(O)c3)nc2-c2ccccc2N1         IC50           µM              19
1  Cc1cc(O)ccc1Nc1ncc2c(n1)-c1ccccc1NC(=O)C2         IC50           µM              20
2  COc1ccc(Nc2ncc3c(n2)-c2ccc(OC)cc2NC(=O)C3)cc1         IC50           µM            0.35
3  COc1ccc2c(c1)NC(=O)Cc1cnc3cc(-c4ccccc4)nn3c1-2         IC50           µM              17

Param item = CCOc1ccc(Nc2ncc3c(n2)-c2ccc(OC)cc2NC(=O)C3)cc1 ; retrieve measured IC50. 7.3

Ok, now O=C1Cc2cnc(Nc3ccc(I)cc3)nc2-c2ccccc2N1 15

Ok, now O=C1Cc2cnc(Nc3cccc(O)c3)nc2-c2cnccc2N1 2.3

====

Let's go through some recorded pIC50 values for Serine/threonine-protein kinase PLK1 (Homo sapiens, UniProt P53350) together.
// field semantics: pIC50 = negative decimal log of concentration (mol/L)

# count of solved cases: 2
>>> df
                           structure_smiles  result_type  value_observed
0  COc1ccc(Nc2ncc3c(n2)-c2cnccc2NC(=O)C3)cc1        pIC50            5.60
1  COc1ccc2c(c1)NC(=O)Cc1cnc(Nc3ccc(OC)c(O)c3)nc1-2        pIC50            6.85

// below: pIC50 requested for another molecule
Param item = CCOc1ccc(Nc2ncc3c(n2)-c2cnccc2NC(=O)C3)cc1 ; retrieve measured pIC50. 5.77

====

# MEASUREMENT_TARGET: Vascular endothelial growth factor receptor 2 (Homo sapiens, UniProt P35968)
# EXPERIMENT_DESCRIPTION: Inhibition of VEGFR2 assessed as [33Pi] incorporation by microplate scintillation counting in presence of 1 uM ATP
RESULT_TYPE: IC50 (nM)
Report as a plain number; the unit nM is understood.

Param item = O=C1Cc2cnc3cc(-c4ccccc4)nn3c2-c2cnccc2N1 ; retrieve measured IC50. 2000
